- assay_info: protein stability index of a GFP-peptide fusion (GPS, HEK-293T) (PSI 1-6); higher = more stable;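 note: 24-mer peptide tiles fused after GFP, lentivirally expressed, FACS-sorted into six equal bins by GFP/DsRed ratio, decoded by Illumina sequencing, PSI is the read-weighted mean bin number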
- conditions: treatment: DMSO; c terminus: a fixed tail appended
outcome_measure: protein stability index
// no unit, no text: just the number

Completed entries (count: 6):
PPPPPPHNSGPPPPPARGRGAPPP [WASL]    5.14
SYPVMGFEFQVRVCDSCYDSIKDE [WDFY1]    2.76
HTFRATFQEPLYPALRLWEGAISI [TRIM14]    2.85
ARRDAKKLVRSPSGLRMVPEHRAF [ZFYVE21]    3.11
GANINAQTEETQETALTLACCGGF [ANKRD17]    4.63
QDSPGPHEALSRLWELCHLWLRPE [ZNF396]    2.33

Need protein stability index of GFAVKALWGRTQEEAEELAKEMSV [GFOD1] , thanks.
4.24

Name the recorded protein stability index for AEASHYNSDLNNLLFCCQCVDVVF [RHOBTB3] .
2.52

State the recorded protein stability index for this entry: ISPGRVYEYTSCTTFSTTSGYMEG [FBXO3]
2.78

# get_value(readout='protein stability index', item= VIEAIAQITVKALPKPPGTPVVTE [PTPRD] )
2.3

Fill blank: measured protein stability index of the sequence FPAVTVEVKSSIAGSSTWERYFIP [SLC29A1] is ____.
2.61

I have this sequence here, HLTVVAIFYGSGIFNYMRLGSTKL [OR3A1] , and I need its recorded protein stability index.
3.1

Report protein stability index for SCEEVAASSASLEPMWSGSTMRRM [EMID1] please.
4.09

Requested field: protein stability index. Item: IVNSTEESDDAFDTVTIPVPSEEP [IQUB]
5.5

Form field: reported protein stability index of LQFEAEMARLQEEHGDQLLSIRCQ [MTUS2]
3.99

Which protein stability index is listed for VQEHARCVHPRGGVIQSVSSWKHG [C18orf25] ?
3.08

---

- assay_info: protein stability index of a GFP-peptide fusion (GPS, HEK-293T) (PSI 1-6); higher = more stable
- conditions: treatment: MLN4924 1 uM, 8 h; c terminus: a fixed tail appended
The entries below come with measured protein stability index values attached.

Examples with answers:
PESDILQPVPNTTEPDYKSKDWVF [STK38L]    4.55
GTEITIAFDFDYGNCKYKVDCACL [KMT2E]    2.39
SPEQQFDRSVQRLLATRIAVYLMT [TMEM175]    2.43
FDVHPPLGKMLIGLAGYLSGYDGT [POMT2]    2.17
SPEVESLPVASSSTLLPLAPSNST [NFE2L1]    5.27
CLGQLNLEQRSESVRRTRSKIGFG [SMAD6]    3.1
VSLSLENRELWKEFSSVGTEMIIT [TBX6]    2.31
LLYTSLPDFCHKFLPGYVGGIQEG [DHCR7]    2.71

GET /values?readout=protein stability index&item= EGRKKAFSTCGSHLTVVAIFYGSG [OR3A1]
3.15

Look up protein stability index: PLPAAAVVHVSFPEVTSALLESLN [ZBTB22]
2.27

What does the data say about its protein stability index? Entry: GFAVKALWGRTQEEAEELAKEMSV [GFOD1]
4.07

What does the record list as protein stability index for QDSPGPHEALSRLWELCHLWLRPE [ZNF396] ?
2.15

Reported protein stability index for RTVQSLEIDLDSMRNLKASLENSL [KRT18] : what is it?
3.25

Could you tell me which protein stability index is on file for ADSLASKVTRLKSLALDIDRDAED [BET1L] ?
5.21

All values here come from the supplement of paper PMC10567573.
